Target: Steryl-sulfatase (Homo sapiens)
Sequence (P08842 whole entry): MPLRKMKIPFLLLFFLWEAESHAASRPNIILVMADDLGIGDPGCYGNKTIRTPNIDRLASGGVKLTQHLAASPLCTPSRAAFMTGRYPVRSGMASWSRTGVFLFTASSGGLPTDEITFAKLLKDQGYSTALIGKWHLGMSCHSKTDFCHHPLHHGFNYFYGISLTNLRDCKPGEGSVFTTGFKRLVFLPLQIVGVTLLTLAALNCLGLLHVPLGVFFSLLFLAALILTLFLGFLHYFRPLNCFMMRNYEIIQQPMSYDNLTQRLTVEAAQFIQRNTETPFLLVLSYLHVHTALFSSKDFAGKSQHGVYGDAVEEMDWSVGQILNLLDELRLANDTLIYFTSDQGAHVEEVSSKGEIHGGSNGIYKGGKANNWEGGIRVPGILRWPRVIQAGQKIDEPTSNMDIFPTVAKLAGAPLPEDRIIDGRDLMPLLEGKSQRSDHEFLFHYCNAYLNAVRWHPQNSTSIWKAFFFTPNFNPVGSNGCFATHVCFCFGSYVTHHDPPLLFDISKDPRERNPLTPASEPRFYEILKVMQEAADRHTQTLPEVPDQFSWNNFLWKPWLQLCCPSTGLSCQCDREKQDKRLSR
measurement.type: IC50 (µM)
# output: bare number, implied unit µM

Please provide the recorded IC50 for `CC(C)(C#N)c1cc(Cn2cncn2)cc(Sc2ccc(OS(N)(=O)=O)c(Cl)c2)c1` , tested on Steryl-sulfatase (Homo sapiens).
3

----------
Experiment: in vivo
Settings: MF1, mouse
measurement.type: LD50

// lookup LD50 for `COc1cc2c(cc1OS(N)(=O)=O)CC[C@@H]1[C@@H]2CC[C@]2(C)[C@@H](OS(N)(=O)=O)CC[C@@H]12`
30 mg/kg

----------
Test: in vivo
Conditions: Wistar, rat, po, 10 mg/kg
measurement.type: bioavailability (%)
# output: bare number, implied unit %

// lookup bioavailability for NS(=O)(=O)Oc1ccc2c(c1)OC(=O)C1CCCCCC21 (stereo unspecified)
95
